# Tested on: THP-1 cells
# TEST DESCRIPTION: CCK-8 cell viability of THP-1 cells after 48 h compound treatment in HaCaT/THP-1 co-culture
# Format: cell-based, human
# CONDITION INFO: 500 μg/mL, 48 h, THP-1, individual replicate values

# COMPOUND, MEASURED TARGET, Cell viability [%]
data = [
    ("O=c1c(-c2ccccc2)c1-c1ccccc1", "THP-1 cells", 31.4681),
    ("Oc1cccc(O)c1", "THP-1 cells", 57.2511),
    ("C=CCc1ccc(O)c(OC)c1", "THP-1 cells", 12.3688),
    ("CC(C)CCCC(C)CCCC(C)CCCCC(C)CCCC(C)CCCC(C)C (centres unmarked)", "THP-1 cells", 84.4381),
    ("Sc1nc2ccccc2s1", "THP-1 cells", 20.0359),
]
